Listing: growth inhibition of selected compounds
Test: NCI Yeast Anticancer Drug Screen. Data for the mec2-1 strain (AID 157)
Settings: S. cerevisiae mec2-1 strain, at 50.0 µM (retest, dose inferred, filed as 5.0), hits give high values
This is part of a sample that, as a whole, favours compounds with a hit. Of some 79,000 tested, about 15% had one in any assay. Where a SMILES comes first, the peptide text is derived from it. [ ]: non-standard residue; d: D form. Nva = CCC[CH](N)C(=O)O
measure_name: growth inhibition (%)

| compound | measure_name | endpoint_result |
| --- | --- | --- |
| O=C1C(Sc2ccc3ccccc3c2)=C(Sc2ccc3ccccc3c2)C(=O)c2ccccc21 | growth inhibition | 94 |
| CP(=O)(c1ccccc1)c1ccccc1 | growth inhibition | 5 |
| CC(SC1=CC(=O)c2c(O)ccc(O)c2C1=O)C(=O)O (stereo not given) | growth inhibition | -2 |
| CN(C)C=Nc1ccc2nonc2c1 | growth inhibition | -7 |
| Cc1cc(-c2ccc(N=Nc3cc(S(=O)(=O)O)c4ccccc4c3N)c(C)c2)ccc1N=Nc1cc(S(=O)(=O)O)c2ccccc2c1N | growth inhibition | 60 |
| CN1CCC(/C=C/c2cccc3ccccc23)CN1 (stereo not given) (tested in a mixture with another compound) | growth inhibition | 71 |
| C=C1N(S(=O)(=O)c2ccc(C)cc2)C(=O)OCC12CCCC2 | growth inhibition | -21 |
| O=S(=O)(Nc1ccccc1)c1ccccc1CC(O)(c1ccccc1)c1ccccc1 | growth inhibition | 94 |
| Cc1cc(N2C(=O)CSC2=S)c([N+](=O)[O-])cc1C | growth inhibition | 100 |
| C=C1CC2(CCOc3ccccc32)OC1=O (stereo not given) | growth inhibition | 91 |
| Nc1ccc(S(=O)(=O)NCc2nccs2)cc1 | growth inhibition | 58 |
| COc1cc(/C=C2\Sc3scc(-c4cccc([N+](=O)[O-])c4)[n+]3C2=O)cc(OC)c1OC | growth inhibition | 82 |
| O=[N+]([O-])/C(C(Cl)=C(Cl)Cl)=C(/Nc1ccccc1)SCc1ccccc1 | growth inhibition | 100 |
| Cc1cc(=O)n(-c2ccc(F)cc2)n1C | growth inhibition | 1 |
| CCCC(N)C(=O)NC(C(=O)O)C(C)C (stereo not given) (H-[Nva]-Val-OH; configuration not given here) | growth inhibition | -3 |
| O=C(C[n+]1cccc2ccccc21)c1ccc(-c2ccc(C(=O)C[n+]3cccc4ccccc43)cc2)cc1 | growth inhibition | 23 |
| CC(C)C(Sc1nc(-c2ccccc2)c(-c2ccccc2)[nH]1)c1n[nH]c(=S)n1-c1ccccc1 (stereo not given) | growth inhibition | 98 |
| COC(=O)/C=C1/OC(c2ccccc2)=CC1=O | growth inhibition | 8 |
| N#COc1ccc(Oc2ccc(OC#N)cc2)cc1 | growth inhibition | 14 |
| CCCCCCCCCCCCCCCCCC[n+]1cccc(C(=O)N2CCOCC2)c1 | growth inhibition | 100 |
| COc1ccccc1NC(=O)CC(=O)N1N=C(c2ccccc2)C(N=Nc2ccc(Cl)cc2)C1=O (stereo not given) | growth inhibition | 21 |
| CC(=O)N(C(C)=O)C1=C2c3ccccc3N(S(=O)(=O)c3ccccc3)C2n2c(=O)n(-c3ccccc3)c(=O)n2C1 (stereo not given) | growth inhibition | 46 |
| Nn1c(-c2ccccc2)nn(C(=O)c2ccccc2)c1=O | growth inhibition | 45 |
| O=S1(=O)c2ccccc2C(O)(c2ccccc2)c2cc3ccccc3n21 (stereo not given) | growth inhibition | 96 |
| CC(=O)OC[C@@]1(C)[C@@H]2CC[C@]3(C)[C@H](C(=O)C=C4[C@@H]5CC(C)(C)CC[C@]5(C(=O)O)CC[C@]43C)[C@@]2(C)CC[C@@H]1OC(C)=O | growth inhibition | 88 |
| CC(=O)N(C1=CC(=O)c2ccccc2C1=O)c1ccc(C)cc1 | growth inhibition | 97 |
| CC(=O)c1cc(I)c(O)c2ncccc12 | growth inhibition | 99 |
| CCCCN(CCCC)C(=O)c1ccc(Cl)cc1Cl | growth inhibition | 98 |
| OCC1CCCCCCCCCCC1 | growth inhibition | 66 |
| OC(c1ccccc1)c1cccc(Br)c1 (stereo not given) | growth inhibition | 77 |
| CC(=O)/C=N/Nc1ccccc1 | growth inhibition | 7 |
| Oc1ccc2ccccc2c1I | growth inhibition | 75 |
| COc1cccc(C(c2cc3c(cc2O)OCO3)N2CCCC2)c1O (stereo not given) | growth inhibition | 44 |
| Cn1c(=S)c2[nH]c(SCCN3CCOCC3)nc2n(C)c1=O | growth inhibition | 70 |
| Cc1ccc(Nc2nc3c(s2)C(=O)c2ccccc2C3=O)cc1 | growth inhibition | 98 |
| CC(=O)SC(SC(C)=O)SC(C)=O | growth inhibition | 98 |
| COc1ccc(Cc2nncc3ccccc23)cc1OC | growth inhibition | 83 |
| O=C(c1cccs1)N(C(=S)N1CCN(c2ccccn2)CC1)C1CCCCC1 | growth inhibition | 61 |
| c1ccc(C(c2ccccc2)c2ccc3ccccc3n2)cc1 | growth inhibition | 71 |
| O=C(N/N=C/c1ccccn1)c1ccccc1[O-].O=C(N/N=C/c1ccccn1)c1ccccc1[O-].[Co+2] | growth inhibition | 0 |
| N=c1c2ccccc2cc2c3ccccc3ccn12 | growth inhibition | 97 |
| CCC[n+]1ccnc2ccccc21 | growth inhibition | -1 |
| CCC(=O)/C(=C\c1ccccc1)C(=O)C(C)CN(C)C (stereo not given) | growth inhibition | 16 |
| CCOC(=O)C(=Cn1c(=S)[nH]c2ccc([N+](=O)[O-])cc21)C(=O)OCC | growth inhibition | 22 |
| CC(C)/C=C1\CCOC1=O | growth inhibition | 1 |
